Hey, just so you know, these numbers are from patent US7700584B2.

Exercise: state measured inhibition at 50 µg/mL for each of the molecules provided.
test system: U-937 human histocytic lymphoma; assay: In vitro inhibition rate to tumor cells (MTT), U-937; format: cell-based; details: Homo sapiens, U-937, 50 μg/ml; Table 2 (repeated screening); read-out: inhibition rate, Results (%) U-937
Counter-ions that a name gives are not always drawn.
Return type: number; implicit unit %.

Query: Entry under review: CC(C)C1CC23OC1(O)CC1(CO1)C2CCC3C (stereo not shown) . Reported inhibition at 50 µg/mL?
Result: 85.4

Query: Give its inhibition at 50 µg/mL value. Item: CC(C)C1CC23OC1(O)CC(=CN1CCNCC1)C2CCC3C (stereo not shown) [Compound 7, Curcumol piperazine]
Result: 90

Query: Reported inhibition at 50 µg/mL, molecule CC(C)C1CC23OC1(O)CC(=CN1CCNCC1)C2CCC3C (stereo not shown) [Compound 8, Curcumol piperazine hydrochloride] : ____
Result: 91.3

Query: Report inhibition at 50 µg/mL for CC(C)C1CC23OC1(O)CC(C)C2CCC3C (stereo not shown) [Compound 33, hydrogenated curcumol derivative] please.
Result: 43.2

Query: Quick one: inhibition at 50 µg/mL for C=C1CC2(OC(=O)C(C)C)OC3(CC2C(C)C)C(C)CCC13 (stereo not shown) [Compound 3, Curcumol isobutyrate] ?
Result: 93

Query: So what does the record say about inhibition at 50 µg/mL for C=C1CC2(OS(=O)(=O)O)OC3(CC2C(C)C)C(C)CCC13 (stereo not shown) [Compound 20, Curcumol sulfonate] ?
Result: 90.3

Query: So what does the record say about inhibition at 50 µg/mL for CC(C)C1CC23OC1(O)C/C(=C\Nc1ccc(O)cc1)C2CCC3C (stereo not shown) [Compound 5, Curcumol p-hydroxy aniline] ?
Result: 95.6

---

Provide the reported inhibition at 10 µg/mL of each item.
target: HIV-1 proteinase (HIV-1 PR) (Human immunodeficiency virus type 1 group M subtype B, UniProt P04585); construct: HIV-1 proteinase digests the fluorescent-labeled substrate; purchased; assay: Screening for in vitro activity against HIV-1 proteinase; type: biochemical; conditions: 10 μg/ml; read-out: Inhibition rate
Counter-ions that a name gives are not always drawn.
Note: unit % is implicit; provide only the numeric part.

Query: Would you mind telling me what inhibition at 10 µg/mL value was observed for C=C1CC2(OS(=O)(=O)O)OC3(CC2C(C)C)C(C)CCC13 (centres unmarked) [Compound 20, Curcumol sulfonate] ?
Result: 9.46

Query: Which inhibition at 10 µg/mL value belongs to C=C1CC2(OC(=O)CCC)OC3(CC2C(C)C)C(C)CCC13 (centres unmarked) [Compound 2, Curcumol butyrate] ?
Result: 12.2

Query: Which value of inhibition at 10 µg/mL has been reported for CC(C)C1CC23OC1(O)C/C(=C\Nc1ccc(O)cc1)C2CCC3C (centres unmarked) [Compound 5, Curcumol p-hydroxy aniline] in the records?
Result: 11.2

Query: Tell me the measured inhibition at 10 µg/mL of CC(C)C1CC23OC1(O)CC(C)C2CCC3C (centres unmarked) [Compound 33, hydrogenated curcumol derivative] , please.
Result: 1.3

Query: Name the recorded inhibition at 10 µg/mL for CC(C)C1CC23OC1(O)CC(=CBr)C2CCC3C (centres unmarked) [Compound 17, Curcumol monobromide] .
Result: 6.15

Query: Item under review: C=C1CC2(OC(=O)C(C)C)OC3(CC2C(C)C)C(C)CCC13 (centres unmarked) [Compound 3, Curcumol isobutyrate] . Reported inhibition at 10 µg/mL?
Result: 12.1

Query: What does the data say about its inhibition at 10 µg/mL? Entry: CC(C)C1CC23OC1(O)CC1(CO1)C2CCC3C (centres unmarked) [Compound 47, Curcumol epoxy compound]
Result: 1.78

Query: Would you mind telling me what inhibition at 10 µg/mL value was observed for CC(C)C1CC23OC1(O)CC(=CN1CCNCC1)C2CCC3C (centres unmarked) [Compound 8, Curcumol piperazine hydrochloride] ?
Result: 0.62

---

target: HIV-1 proteinase (HIV-1 PR) (Human immunodeficiency virus type 1 group M subtype B, UniProt P04585); construct: HIV-1 proteinase digests the fluorescent-labeled substrate; purchased; assay: Screening for in vitro activity against HIV-1 proteinase; assay type: biochemical; settings: read-out: Inhibition rate, 50 μg/ml
Where a name gives a salt, the structure may show the parent alone.
MEASUREMENT_LABEL: inhibition at 50 µg/mL (%)
Record the value in %, omitting the unit from your answer.

Query: // inhibition at 50 µg/mL lookup, key: CC(C)C1CC23OC1(O)CC(=CN1CCNCC1)C2CCC3C (stereo not shown) [Compound 7, Curcumol piperazine]
Result: 1.43

Query: Consider the molecule CC(C)C1CC23OC1(O)CC(=CBr)C2CCC3C (stereo not shown) [Compound 17, Curcumol monobromide] and give its measured inhibition at 50 µg/mL.
Result: 9.94

Query: For CC(C)C1CC23OC1(O)CC1(CO1)C2CCC3C (stereo not shown) , what is its reported inhibition at 50 µg/mL?
Result: 0.56

Query: Need inhibition at 50 µg/mL of CC(C)C1CC23OC1(O)CC(C)C2CCC3C (stereo not shown) [Compound 33, hydrogenated curcumol derivative] , thanks.
Result: 9.14

Query: What inhibition at 50 µg/mL value was documented for this molecule, C=C1CC2(OC(=O)CCC)OC3(CC2C(C)C)C(C)CCC13 (stereo not shown) [Compound 2, Curcumol butyrate] ?
Result: 12.7

Query: Return reported inhibition at 50 µg/mL; argument: CC(C)C1CC23OC1(O)CC(=CN1CCNCC1)C2CCC3C (stereo not shown) [Compound 8, Curcumol piperazine hydrochloride]
Result: 1.4

Query: What inhibition at 50 µg/mL value was documented for this molecule, C=C1CC2(OC(=O)C(C)C)OC3(CC2C(C)C)C(C)CCC13 (stereo not shown) [Compound 3, Curcumol isobutyrate] ?
Result: 5.55

---

test system: Hepatitis B virus (HBV); type: cell-based; settings: 200 μg/ml, supernatant four days after infection; positive control 1.917, negative 0.057
Binary call on OD450 of HBeAg: 1 (yes) from 2 upward, 0 (no) beneath that.

Query: Does the reported OD450 of HBeAg for C=C1CC2(OC(=O)C(C)C)OC3(CC2C(C)C)C(C)CCC13 (centres unmarked) [Compound 3, Curcumol isobutyrate] fall at or above the 2 mark?
Result: 1 (yes)

Query: Quick check: does C=C1CC2(OC)OC3(CC2C(C)C)C(C)CCC13 (centres unmarked) [Compound 25, Curcumol methyl ether] have OD450 of HBeAg greater than or equal to 2?
Result: 1 (yes)

Query: Threshold query (OD450 of HBeAg >= 2) on CC(C)C1CC23OC1(O)CC(=CBr)C2CCC3C (centres unmarked) [Compound 17, Curcumol monobromide]
Result: 0 (no)

Query: Is it the case that C=C1CC2(OC(=O)CCC)OC3(CC2C(C)C)C(C)CCC13 (centres unmarked) [Compound 2, Curcumol butyrate] has OD450 of HBeAg reaching or exceeding 2?
Result: 0 (no)

Query: Identify whether the reported OD450 of HBeAg of the following compound is 2 or greater: C=C1CC2(OS(=O)(=O)O)OC3(CC2C(C)C)C(C)CCC13 (centres unmarked) [Compound 20, Curcumol sulfonate]
Result: 1 (yes)

---

test system: A-549 human lung adenocarcinoma; test: In vitro inhibition rate to tumor cells (MTT), A-549; format: cell-based; conditions: 50 μg/ml; Table 2 (repeated screening)
MEASUREMENT_LABEL: inhibition rate, Results (%) A-549
Write the answer as a number in %, unit excluded.

Query: For the compound shown here, CC(C)C1CC23OC1(O)CC(CO[N+](=O)[O-])(O[N+](=O)[O-])C2CCC3C (stereo not shown) [Compound 31, Curcumol dinitrate] , give the reported inhibition rate, Results (%) A-549.
Result: 4.82

Query: Look at this compound and give its reported inhibition rate, Results (%) A-549. CCCCNC=C1CC2(O)OC3(CC2C(C)C)C(C)CCC13.Cl (stereo not shown) [Compound 14, Curcumol n-butyl amine hydrochloride]
Result: 9.23

Query: Quick check: inhibition rate, Results (%) A-549 of CCCCNC=C1CC2(OC)OC3(CC2C(C)C)C(C)CCC13 (stereo not shown) ?
Result: 5.23

Query: Reported inhibition rate, Results (%) A-549, compound CC(C)C1CC23OC1(O)CC(CN1CCNCC1)(N1CCNCC1)C2CCC3C (stereo not shown) : ____
Result: −7.89

---

system: HL-60 human promyelocytic leukemia; assay: In vitro inhibition rate to tumor cells (MTT), HL-60; format: cell-based; details: Homo sapiens, HL-60, 50 μg/ml; Table 3 (repeated screening); read-out: inhibition rate, Results (%) HL-60
Structures can show the parent of a compound that is named as a salt.
MEASUREMENT_LABEL: inhibition at 50 µg/mL (%)
Give the value in % but do not write % after it.

Query: Look up inhibition at 50 µg/mL: CC(C)C1CC23OC1(O)CC(=CN1CCNCC1)C2CCC3C (centres unmarked) [Compound 8, Curcumol piperazine hydrochloride]
Result: 91.1

Query: Request the reported inhibition at 50 µg/mL associated with CC(C)C1CC23OC1(O)C/C(=C\Nc1ccc(O)cc1)C2CCC3C (centres unmarked) [Compound 6, Curcumol p-hydroxy aniline hydrochloride]
Result: 95.5

Query: Entry under review: C=C1CC2(OS(=O)(=O)O)OC3(CC2C(C)C)C(C)CCC13 (centres unmarked) [Compound 20, Curcumol sulfonate] . Reported inhibition at 50 µg/mL?
Result: 91.7

Query: // query inhibition at 50 µg/mL value for entry CC(C)C1CC23OC1(O)CC(=CN1CCNCC1)C2CCC3C (centres unmarked) [Compound 7, Curcumol piperazine]
Result: 90.2

Query: Value lookup for inhibition at 50 µg/mL; key = C=C1CC2(O)OC3(CC2C(C)C)C(C)CCC13 (centres unmarked) [Curcumol E, Curcumol, reference compound]
Result: 1.79
